Origin of values: PubChem BioAssay (NCATS)

Test: qHTS profiling of the MIPE4 collection as inhibitors of Plasmodium falciparum (HB3) proliferation (AID 743347)
Settings: P. falciparum HB3 in erythrocytes, SYBR Green DNA, 72 h; at 28.5 µM (top of the series) unless noted
Residues, ends and D or L forms follow the SMILES beside them. *: point of attachment. Cbz = O=C(OCc1ccccc1)*
Class field: derived from growth, % of control; ranges low bin: < 6%; mid bin: ≥ 6% and < 60%; high bin: ≥ 60%

stdin: # bin lookup: classify CC(=CC(=O)Nc1ccccc1C(=O)O)c1ccc2ccccc2c1 by its growth, % of control
stdout: high bin

stdin: Ok, now Nc1nc(N)c2nc(-c3cccc(O)c3)c(-c3cccc(O)c3)nc2n1
stdout: mid bin

stdin: Ok, now CC[C@H](CC[C@@H](C)[C@H]1CC[C@H]2[C@@H]3CC=C4C[C@@H](O)CC[C@]4(C)[C@@H]3CC[C@]12C)C(C)C
stdout: high bin

stdin: Ok, now C=Cc1c(C)c2cc3nc(cc4[nH]c(cc5nc(cc1[nH]2)C(C)=C5CCC(=O)O)c(CCC(=O)OC)c4C)[C@@]1(C)C3=CC=C(C(=O)OC)[C@H]1C(=O)OC
stdout: low bin

stdin: Ok, now COc1cc(OC)c(C=CS(=O)(=O)Cc2ccc(OC)c(NCC(=O)O)c2)c(OC)c1
stdout: high bin

stdin: Ok, now CC(C)[C@H](CO)Nc1nc(Nc2cccc(Cl)c2)c2ncn(C(C)C)c2n1
stdout: low bin

stdin: Ok, now Oc1ccc(-c2ccc(-c3cc(Nc4cccc(CNC5CC5)c4)n[nH]3)cc2)c(O)c1
stdout: low bin

stdin: Ok, now CCCNC(=O)[C@H]1O[C@H]1C(=O)N[C@H](C(=O)N1CCC[C@@H]1C(=O)OC)C(C)CC (some centres not stated)
stdout: high bin

stdin: Ok, now Oc1cc2c(cc1O)C1c3ccc(O)c(O)c3OCC1(O)C2 (configuration not stated)
stdout: mid bin

stdin: Ok, now CCOC(=O)N1CCN([N+]([O-])=NOc2ccc([N+](=O)[O-])cc2C#N)CC1
stdout: mid bin

stdin: Ok, now COc1cc(C)c(Sc2cnc(NC(=O)c3ccc(CNC(C)C(C)(C)C)cc3)s2)cc1C(=O)N1CCN(C(C)=O)CC1 (configuration not stated)
stdout: low bin

stdin: Ok, now CC(=O)O[C@]1(C(C)=O)CC[C@H]2[C@@H]3C=C(C)C4=CC(=O)CC[C@]4(C)[C@@H]3CC[C@@]21C
stdout: mid bin

stdin: Ok, now Cc1ccc([N+](=O)[O-])cc1S(=O)(=O)N(C)N=Cc1cnc2ccc(Br)cn12
stdout: low bin

stdin: Ok, now CNC(=O)Nc1ccc(-c2nc(N3CC4CCC(C3)O4)c3cnn(C4CCC5(CC4)OCCO5)c3n2)cc1
stdout: low bin

stdin: Ok, now Cn1cc(CNCC2CCN(c3ncc(C(=O)NO)cn3)CC2)c2ccccc21
stdout: mid bin

stdin: Ok, now Nc1nc2c(c(=O)[nH]1)N(C=O)[C@H](CNc1ccc(C(=O)N[C@@H](CCC(=O)O)C(=O)O)cc1)CN2
stdout: high bin

stdin: Ok, now Cc1ccc2nc(NCCN)c3ncc(C)n3c2c1
stdout: high bin

stdin: Ok, now N#CNC(=NCCCCCCOc1ccc(Cl)cc1)Nc1ccncc1
stdout: low bin

stdin: Ok, now CC(Cc1ccc(O)c(O)c1)(NN)C(=O)O (configuration not stated)
stdout: mid bin

stdin: Ok, now CC(C)C[C@@H](C=O)NC(=O)[C@H](CC(C)C)NC(=O)[C@H](CC(C)C)NC(=O)OCc1ccccc1 (Cbz-Leu-Leu-Leu-aldehyde)
stdout: mid bin

stdin: Ok, now O=C1NCCc2[nH]c(-c3ccncc3)cc21
stdout: low bin

stdin: Ok, now CC(=O)NCC(=O)N1[C@H]2CC[C@H]1c1cc(Nc3ncc(C(F)(F)F)c(NC4CCC4)n3)ccc12
stdout: mid bin

stdin: Ok, now N[C@H]1CN(c2c(F)cc3c(=O)c(C(=O)O)cn(C4C[C@@H]4F)c3c2Cl)CC12CC2 (some centres not stated)
stdout: mid bin

stdin: Ok, now C=C(C)[C@@H]1CC[C@]2(C)CC[C@]3(C)[C@H](CC[C@@H]4[C@@]5(C)CC[C@H](O)C(C)(C)[C@H]5CC[C@]43C)[C@@H]12
stdout: mid bin

stdin: Ok, now Cn1cc(C2=C(c3c4n(c5ccccc35)CCC(CN)C4)C(=O)NC2=O)c2ccccc21 (configuration not stated)
stdout: low bin

stdin: Ok, now c1cc(N[C@@H]2CCNC2)nc(-c2cnc3ccc(-c4cn[nH]c4)cn23)c1
stdout: low bin

stdin: Ok, now N#CC(=Cc1ccc(O)c(O)c1)C(=O)NCc1ccccc1
stdout: mid bin

stdin: Ok, now CN(N=O)C(=O)N[C@H]1C(O)OC(CO)[C@@H](O)[C@H]1O (some centres not stated)
stdout: high bin

stdin: Ok, now COc1cccc2c1C(=O)c1c(O)c3c(c(O)c1C2=O)C[C@@](O)(C(=O)CO)C[C@H]3O[C@H]1C[C@H](N)[C@H](O)[C@H](C)O1
stdout: low bin

stdin: Ok, now O=C(CN1C(=O)C2(CCCC2)NC[C@H]1c1cc(F)cc(F)c1)Nc1ccc2c(c1)C[C@@]1(C2)C(=O)Nc2ncccc21
stdout: mid bin

stdin: Ok, now COc1cc(OC)c(NC(=O)Nc2cc(C)on2)cc1Cl
stdout: high bin

stdin: Ok, now Nc1nc(=O)n([C@H]2CSC(CO)O2)cc1F (some centres not stated)
stdout: high bin

stdin: Ok, now CC(Oc1ccc(O)cc1)(P(=O)(O)O)P(=O)(O)O
stdout: high bin

###

Assay: qHTS of pediatric cancer cell lines to identify multiple opportunities for drug repurposing: Primary screen for SJ-GBM2 cells (AID 1347091)
Conditions: SJ-GBM2 viability, CellTiter-Glo luminescence, 48 h; series mostly up to 46 µM
Records with an inconclusive call do not appear. Calls of active or inactive are those of the source. The call rests on the fitted dose curve; in most records, active means well fitted cell-killing curve with a large enough effect; inconclusive means small, poorly fitted or top-dose-only effect; inactive means no such curve, though single readings can be large or run the other way.
Write down one outcome, taken from active, inactive

stdin: // return assay outcome for Oc1cc(-c2nc(-c3ccccc3)[nH]c2-c2ccncc2)ccc1Cl
stdout: active

stdin: Ok, now CNC(=O)c1cccc(-c2ccc3c(N4CCOC[C@H]4C)nc(N4CCOC[C@H]4C)nc3n2)c1
stdout: active

stdin: Ok, now C[C@H]1COc2c(N3CCN(C)CC3)c(F)cc3c(=O)c(C(=O)O)cn1c23
stdout: inactive

stdin: Ok, now CC[C@H]1OC(=O)[C@H](C)[C@@H](O[C@H]2C[C@@](C)(OC)[C@@H](O)[C@H](C)O2)[C@H](C)[C@@H](O[C@@H]2O[C@@H](C)C[C@H](N(C)C)[C@@H]2O)[C@](C)(O)C[C@@H](C)C(=O)[C@H](C)[C@@H](O)[C@]1(C)O
stdout: inactive

stdin: Ok, now Cc1cc(C(=O)NOCCO)c(Nc2ccc(I)cc2F)n(C)c1=O
stdout: inactive

stdin: Ok, now COc1cc(C=CC(=O)CC(=O)C=Cc2ccc(O)c(OC)c2)ccc1O
stdout: active

stdin: Ok, now CC[C@H]1OC(=O)[C@H](C)[C@@H](O[C@H]2C[C@@](C)(OC)[C@@H](O)[C@H](C)O2)[C@H](C)[C@@H](O[C@@H]2O[C@H](C)C[C@H](N(C)C)[C@@H]2O)[C@](C)(OC)C[C@@H](C)C(=O)[C@H](C)[C@@H](O)[C@]1(C)O
stdout: inactive

stdin: Ok, now O=[N+]([O-])c1cn2c(n1)OC[C@@H](OCc1ccc(OC(F)(F)F)cc1)C2
stdout: inactive

stdin: Ok, now CC1(C)[C@H](O[C@H]2O[C@H](C(=O)O)[C@@H](O)[C@H](O)[C@H]2O[C@@H]2O[C@H](C(=O)O)[C@@H](O)[C@H](O)[C@H]2O)CC[C@@]2(C)[C@H]1CC[C@]1(C)[C@H]2C(=O)C=C2[C@H]3C[C@@](C)(C(=O)O)CC[C@]3(C)CC[C@]21C
stdout: inactive

stdin: Ok, now OCc1ccccc1O[C@@H]1O[C@H](CO)[C@H](O)[C@H](O)[C@H]1O
stdout: inactive

stdin: Ok, now COc1cccc2c1C(=O)c1c(O)c3c(c(O)c1C2=O)C[C@@](O)(C(C)=O)C[C@H]3O[C@H]1C[C@H](N)[C@H](O)[C@H](C)O1
stdout: active

stdin: Ok, now Nc1nc(N)c2nc(-c3cccc(O)c3)c(-c3cccc(O)c3)nc2n1
stdout: active

stdin: Ok, now COc1cc([C@@H]2c3cc4c(cc3[C@H](O)[C@H]3COC(=O)[C@@H]23)OCO4)cc(OC)c1OC
stdout: active

stdin: Ok, now COC(=O)[C@@H]1CC2=CC(=O)CC[C@]2(C)[C@@]23O[C@@H]2C[C@@]2(C)[C@H](CC[C@@]24CCC(=O)O4)[C@@H]13
stdout: inactive

stdin: Ok, now CCc1nc(-c2cccc(C)c2)c(-c2ccnc(NC(=O)c3ccccc3)c2)s1
stdout: active

stdin: Ok, now O=C(Nc1cccc(Nc2ncc(Br)c(NCCc3cnc[nH]3)n2)c1)N1CCCC1
stdout: active

stdin: Ok, now O=C(O)C(=O)Nc1cccc(C2=NN=N[N]2)c1
stdout: inactive

stdin: Ok, now CCNC(=O)Nc1ccc(-c2nc3c(c(N4CCOC[C@H]4C)n2)CCN(C2COC2)C3)cc1
stdout: active

stdin: Ok, now CC(Cc1ccc(O)c(O)c1)(NN)C(=O)O (stereo unspecified)
stdout: inactive

stdin: Ok, now C[C@H](NC(=O)[C@@H](O)c1cc(F)cc(F)c1)C(=O)N[C@@H]1C(=O)N(C)c2ccccc2-c2ccccc21
stdout: inactive

stdin: Ok, now CCOC(=O)C=C[C@H](C[C@@H]1CCNC1=O)NC(=O)[C@@H](CC(=O)[C@@H](NC(=O)c1cc(C)on1)C(C)C)Cc1ccc(F)cc1
stdout: inactive

stdin: Ok, now Nc1ccn(C[C@@H](CO)OCP(=O)(O)O)c(=O)n1
stdout: inactive

stdin: Ok, now COC(=O)[C@@H]1[C@H]2C[C@@H]3c4[nH]c5ccccc5c4CCN3C[C@@H]2CC[C@@H]1O
stdout: inactive

stdin: Ok, now C[C@H](CCC(=O)O)[C@H]1CC[C@H]2[C@@H]3[C@H](O)C[C@@H]4C[C@H](O)CC[C@]4(C)[C@@H]3CC[C@]12C
stdout: inactive

stdin: Ok, now COc1cc2c(cc1O)CCC1C2CC[C@@]2(C)C1CC[C@@H]2O (stereo partly specified)
stdout: active

stdin: Ok, now COc1ccc(C(C)=O)c(O)c1
stdout: inactive

stdin: Ok, now COc1cc2c(cc1OC)[C@@H]1C(=O)c3ccc4c(c3O[C@@H]1CO2)C=CC(C)(C)O4
stdout: active

stdin: Ok, now Cn1cc(CNCC2CCN(c3ncc(C(=O)NO)cn3)CC2)c2ccccc21
stdout: active

stdin: Ok, now Nc1ncn([C@@H]2O[C@H](CO)[C@@H](O)[C@@H]2O)c(=O)n1
stdout: active

stdin: Ok, now CC(C)(O)CC[C@@H](O)[C@](C)(O)[C@H]1CC[C@@]2(O)C3=CC(=O)[C@@H]4C[C@@H](O)[C@@H](O)C[C@]4(C)[C@@H]3CC[C@]12C
stdout: inactive

stdin: Ok, now C[C@H]1O[C@H](O[C@H]2[C@H](O)[C@@H](O)[C@@H](O[C@H]3[C@H](O)[C@@H](O)C(O)O[C@H]3CO)O[C@H]2CO)[C@H](O)[C@@H](O)[C@H]1N[C@H]1C=C(CO)[C@@H](O)[C@H](O)[C@@H]1O (stereo partly specified)
stdout: active
